Data origin: patent US20060193821

# TGT: IL-12 (human, p35/p40 heterodimer) (Homo sapiens, UniProt P29459;P29460 SEQ:57-253,SEQ:23-328)
# Sequence (P29459 23-219, chain 1 of 2): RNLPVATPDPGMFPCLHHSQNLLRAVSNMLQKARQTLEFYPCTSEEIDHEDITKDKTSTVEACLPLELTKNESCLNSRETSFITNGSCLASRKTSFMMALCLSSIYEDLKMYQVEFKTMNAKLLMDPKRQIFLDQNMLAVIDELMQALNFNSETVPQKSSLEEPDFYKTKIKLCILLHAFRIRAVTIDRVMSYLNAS
# Sequence (P29460 23-328, chain 2 of 2): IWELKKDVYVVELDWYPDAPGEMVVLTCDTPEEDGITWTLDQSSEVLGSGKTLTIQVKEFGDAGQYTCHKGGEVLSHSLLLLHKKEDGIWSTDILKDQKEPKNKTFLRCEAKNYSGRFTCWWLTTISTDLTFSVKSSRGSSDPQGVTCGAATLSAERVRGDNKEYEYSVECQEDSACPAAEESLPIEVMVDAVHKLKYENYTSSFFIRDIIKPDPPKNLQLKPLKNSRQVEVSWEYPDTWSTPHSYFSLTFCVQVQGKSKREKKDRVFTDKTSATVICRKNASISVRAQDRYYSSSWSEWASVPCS
# ASSAY_DETAILS: filter; 1X PBS, 0.1 mg/mL BSA, 30 min RT
# EXPERIMENTAL_SETUP: label: 32P
pKd: −log10 of the molar value.
pKd by entry:
MEASURE_NAME: pKd

1) ARC1632 (ssRNA, 2'-F all C and U (rRfY)) RNA: GGAGCGCACUCAGCCACCGGCUUAAUAUCCAAUAGGAACGUUCGCUCUGAGCAGGCGUUUCGACCUCUCUGCUAGC    6.73
2) ARC1634 (ssRNA, 2'-F all C and U (rRfY)) RNA: GGAGCGCACUCAGCCACCUUGGGCUUAAUACCUAUCGGAUGUGCGCCUAGCACGGAAUUUCGACCUCUCUGCUAGC    7.20
3) ARC1630 (ssRNA, 2'-F all C and U (rRfY)) RNA: GGAGCGCACUCAGCCACUCUACUCGAUAUAGUUUAUCGAGCCGGUGGUAGAUUAUGAUUUCGACCUCUCUGCUAGC    6.62
4) ARC1628 (ssRNA, 2'-F all C and U (rRfY)) RNA: GGAGCGCACUCAGCCACAGGUGGCUUAAUACUGUAAAGACGUGCGCGCAGAGGGAUUUUCGACCUCUCUGCUAGC    6.79
5) ARC1631 (ssRNA, 2'-F all C and U (rRfY)) RNA: GGAGCGCACUCAGCCACGCCUACAAUUCACUGUGAUAUAUCGAAUUAUAGCCCUGGUUUCGACCUCUCUGCUAGC    7.16
6) ARC1633 (ssRNA, 2'-F all C and U (rRfY)) RNA: GGAGCGCACUCAGCCACAGCUCGGUGGCUUAAUAUCUAUGUGAACGUGCGCAACAGCUUUCGACCUCUCUGCUAGC    6.71
7) ARC1629 (ssRNA, 2'-F all C and U (rRfY)) RNA: GGAGCGCACUCAGCCACCGUAAUUCACAAGGUCCCUGAGUGCAGGGUUGUAUGUUUGUUUCGACCUCUCUGCUAGC    7.12
